tested on: MCF7MX cells; assay: SRB cell viability assay in MCF7MX cells (ABCG2 overexpressing); format: cell-based, human; settings: Homo sapiens, MCF7/MX; 72 h, SRB, 1 h pre-treatment with 10 μM FTC
property: log10 GI50 (log10 of the value in µM)

[[record]]
compound = "O=C1c2c(O)ccc(O)c2C(=O)c2c(NCCNCCO)ccc(NCCNCCO)c21 [Mitoxantrone, reference compound]"
study_system = "MCF7MX cells"
property = "log10 GI50"
measured_value = 1.36

[[record]]
compound = "CCOc1cc2ncc(C#N)c(Nc3ccc(F)c(Cl)c3)c2cc1NC(=O)/C=C/CNCc1cn(CCF)nn1"
study_system = "MCF7MX cells"
property = "log10 GI50"
measured_value = 1.58

[[record]]
compound = "CC[C@]1(O)C[C@@H]2CN(CCc3c([nH]c4ccccc34)[C@@](C(=O)OC)(c3cc4c(cc3OC)N(C)[C@H]3[C@@](O)(C(=O)OC)[C@H](OC(C)=O)[C@]5(CC)C=CCN6CC[C@]43[C@@H]65)C2)C1 [Vinblastine, reference compound]"
study_system = "MCF7MX cells"
property = "log10 GI50"
measured_value = -2.58

[[record]]
compound = "CCOc1cc2ncc(C#N)c(Nc3ccc(F)c(Cl)c3)c2cc1N"
study_system = "MCF7MX cells"
property = "log10 GI50"
measured_value = 1.00

[[record]]
compound = "CCOc1cc2ncc(C#N)c(Nc3ccc(F)c(Cl)c3)c2cc1NC(=O)/C=C/CN(C)C [EKB-569, pelitinib, reference compound]"
study_system = "MCF7MX cells"
property = "log10 GI50"
measured_value = 0.19

[[record]]
compound = "CCOc1cc2ncc(C#N)c(Nc3ccc(F)c(Cl)c3)c2cc1NC(=O)/C=C/CNC"
study_system = "MCF7MX cells"
property = "log10 GI50"
measured_value = 1.01

